Measured pIC50 of individual entries
Target: UniProtKB P09917
Test: Inhibition of 5-LOX in human neutrophils assessed as reduction in LTB4 and 5-H(P)ETE) formation pre-incubated for 15 mins before A23187 and arachidonic acid substrate addition by RP-HPLC method
In textbook form, pIC50 equals minus log to base ten of the concentration in mol/L.

1. CC(=O)Oc1ccc(/C=C/C(=O)OCCCCc2cn(CCCO)nn2)cc1OC(C)=O	5.21
2. CC(=O)Oc1ccc(/C=C/C(=O)OCCCN=[N+]=[N-])cc1OC(C)=O	5.89

In plain terms, C#CCCOC(=O)/C=C/c1ccc(OC(C)=O)c(OC(C)=O)c1 has a documented pIC50 of 5.74

###

Measured Activity of individual entries
Target: Polyunsaturated fatty acid 5-lipoxygenase (Homo sapiens)
Assay: Inhibition of human 5-LOX expressed in Escherichia coli Bl21 (DE3) assessed as remaining enzyme activity by measuring LTB4 and 5-H(P)ETE) formation at 10 uM pre-incubated for 10 mins before arachidonic acid substrate addition by RP-HPLC method
Write the answer as a number in %, unit excluded.

In plain terms, O=C(/C=C/c1ccc(F)c(F)c1)OCCc1cn(CCCO)nn1 has a documented Activity of 90.3

In plain terms, C#CCCOC(=O)/C=C/c1ccc(F)c(F)c1 has a documented Activity of 52.6

In plain terms, CC(=O)Oc1ccc(/C=C/C(=O)NCCc2cn(CCCO)nn2)cc1OC(C)=O has a documented Activity of 53.6

In plain terms, CC(=O)Oc1ccc(/C=C/C(=O)O)cc1OC(C)=O has a documented Activity of 90.3

###

Measured EC50 of individual entries
System: U-937
Assay: Cytotoxicity against human U937 cells assessed as reduction in viability incubated for 24 hrs by MTT assay
Assay type: cell-based
Settings: U-937, 24 h
Write the answer as a number in µM, unit excluded.

Sample answers from the record:
1. C#CCCOC(=O)/C=C/c1ccc(OC(C)=O)c(OC(C)=O)c1	9.8
2. CC(=O)Oc1ccc(/C=C/C(=O)OCCc2cn(CCCOC(=O)C3(C)CCc4c(C)c(OC(C)=O)c(C)c(C)c4O3)nn2)cc1OC(C)=O (configuration not stated)	10.1

In plain terms, O=C(/C=C/c1ccc(F)c(F)c1)OCCc1cn(CCCO)nn1 has a documented EC50 of 5.1

###

Measured pIC50 of individual entries
Biological target: Polyunsaturated fatty acid 5-lipoxygenase (Homo sapiens)
Experiment: Inhibition of human 5-LOX expressed in Escherichia coli Bl21 (DE3) assessed as reduction in LTB4 and 5-H(P)ETE) formation pre-incubated for 10 mins before arachidonic acid substrate addition by RP-HPLC method
pIC50: −log10 of the molar value.

1. CC(=O)Oc1ccc(/C=C/C(=O)OCCc2cn(CCCOC(=O)C3(C)CCc4c(C)c(OC(C)=O)c(C)c(C)c4O3)nn2)cc1OC(C)=O (stereo unspecified)	< 5.00
2. CC(=O)Oc1ccc(/C=C/C(=O)OCCCCCCCCc2cn(CCCO)nn2)cc1OC(C)=O	5.49
3. CC(=O)Oc1ccc(/C=C/C(=O)O)cc1OC(C)=O	< 5.00
4. C#CCCOC(=O)/C=C/c1ccc(OC(C)=O)c(OC(C)=O)c1	< 5.00
5. C#CCCCCOC(=O)/C=C/c1ccc(OC(C)=O)c(OC(C)=O)c1	< 5.00

In plain terms, CC(=O)Oc1ccc(/C=C/C(=O)OCCCn2cc(CCO)nn2)cc1OC(C)=O has a documented pIC50 of 5.12

In plain terms, C#CCCOC(=O)/C=C/c1ccc(F)c(F)c1 has a documented pIC50 of < 5.00

In plain terms, C#CCCCCCOC(=O)/C=C/c1ccc(OC(C)=O)c(OC(C)=O)c1 has a documented pIC50 of < 5.00

In plain terms, C#CCCCCCCCCOC(=O)/C=C/c1ccc(OC(C)=O)c(OC(C)=O)c1 has a documented pIC50 of < 5.00

In plain terms, CC(=O)Oc1c(C)c(C)c2c(c1C)CCC(C)(C(=O)OCCCN=[N+]=[N-])O2 (stereo unspecified) has a documented pIC50 of < 5.00

In plain terms, CC(=O)Oc1ccc(/C=C/C(=O)OCCCCc2cn(CCCO)nn2)cc1OC(C)=O has a documented pIC50 of 5.12

In plain terms, CC(=O)Oc1ccc(/C=C/C(=O)OCCCn2cc(CCOC(=O)/C=C/c3ccc(OC(C)=O)c(OC(C)=O)c3)nn2)cc1OC(C)=O has a documented pIC50 of < 5.00

In plain terms, O=C(/C=C/c1ccc(F)c(F)c1)OCCc1cn(CCCO)nn1 has a documented pIC50 of < 5.00

###

Target: Polyunsaturated fatty acid 5-lipoxygenase (Homo sapiens)
Assay: Inhibition of 5-LOX in human neutrophils assessed as remaining enzyme activity by measuring LTB4 and 5-H(P)ETE) formation at 10 uM pre-incubated for 15 mins before A23187 and arachidonic acid substrate addition by RP-HPLC method
measuredMetric: Activity (%)
Write the answer as a number in %, unit excluded.

Sample answers from the record:
1. C#CCCOC(=O)/C=C/c1ccc(F)c(F)c1	88.2
2. CC(=O)Oc1ccc(/C=C/C(=O)NCCc2cn(CCCO)nn2)cc1OC(C)=O	104

Field Activity (Polyunsaturated fatty acid 5-lipoxygenase (Homo sapiens)), entry O=C(/C=C/c1ccc(F)c(F)c1)OCCc1cn(CCCO)nn1 : 101

Field Activity (Polyunsaturated fatty acid 5-lipoxygenase (Homo sapiens)), entry CC(=O)Oc1ccc(/C=C/C(=O)O)cc1OC(C)=O : 84.7

###

Measured pIC50 of individual entries
Target: Polyunsaturated fatty acid 5-lipoxygenase (Homo sapiens, UniProt P09917)
Sequence (P09917 whole entry): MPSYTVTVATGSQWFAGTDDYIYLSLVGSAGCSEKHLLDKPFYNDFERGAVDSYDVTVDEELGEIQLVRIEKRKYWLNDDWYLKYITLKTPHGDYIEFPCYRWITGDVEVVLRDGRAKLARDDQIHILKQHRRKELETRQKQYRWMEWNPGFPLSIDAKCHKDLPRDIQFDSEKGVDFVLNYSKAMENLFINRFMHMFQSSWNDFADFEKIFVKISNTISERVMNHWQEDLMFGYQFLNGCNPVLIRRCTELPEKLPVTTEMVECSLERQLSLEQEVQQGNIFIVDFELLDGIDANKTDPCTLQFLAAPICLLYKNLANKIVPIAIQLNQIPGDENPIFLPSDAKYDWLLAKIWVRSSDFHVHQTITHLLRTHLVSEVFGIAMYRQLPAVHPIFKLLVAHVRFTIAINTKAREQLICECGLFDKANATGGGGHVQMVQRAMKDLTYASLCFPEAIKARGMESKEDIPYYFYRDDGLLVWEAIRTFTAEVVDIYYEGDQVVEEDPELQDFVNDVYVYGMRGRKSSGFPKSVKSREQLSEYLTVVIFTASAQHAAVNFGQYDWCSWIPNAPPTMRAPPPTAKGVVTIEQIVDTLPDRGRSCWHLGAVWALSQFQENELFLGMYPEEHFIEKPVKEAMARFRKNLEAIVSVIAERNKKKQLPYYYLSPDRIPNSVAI
Assay: Inhibition of 5-LOX in human neutrophils assessed as reduction in LTB4 and 5-H(P)ETE) formation pre-incubated for 15 mins before A23187 and arachidonic acid substrate addition by RP-HPLC method
In textbook form, pIC50 equals minus log to base ten of the concentration in mol/L.

Sample answers from the record:
1) C#CCCNC(=O)/C=C/c1ccc(OC(C)=O)c(OC(C)=O)c1	5.08
2) C#CCCCCCOC(=O)/C=C/c1ccc(OC(C)=O)c(OC(C)=O)c1	6.33
3) CC(=O)Oc1ccc(/C=C/C(=O)OCCCCCCCCc2cn(CCCO)nn2)cc1OC(C)=O	6.70

In plain terms, C#CCCCCOC(=O)/C=C/c1ccc(OC(C)=O)c(OC(C)=O)c1 has a documented pIC50 of 6.04

In plain terms, CC(=O)Oc1ccc(/C=C/C(=O)OCCCn2cc(CCOC(=O)/C=C/c3ccc(OC(C)=O)c(OC(C)=O)c3)nn2)cc1OC(C)=O has a documented pIC50 of 6.22

In plain terms, C#CCCCCCCCCOC(=O)/C=C/c1ccc(OC(C)=O)c(OC(C)=O)c1 has a documented pIC50 of 6.74

In plain terms, CC(=O)Oc1ccc(/C=C/C(=O)OCCc2cn(CCCOC(=O)C3(C)CCc4c(C)c(OC(C)=O)c(C)c(C)c4O3)nn2)cc1OC(C)=O (centres undefined) has a documented pIC50 of 6.80

In plain terms, CC(=O)Oc1c(C)c(C)c2c(c1C)CCC(C)(C(=O)OCCCN=[N+]=[N-])O2 (centres undefined) has a documented pIC50 of 5.59

###

Tested on: U-937
Assay: Cytotoxicity against human U937 cells assessed as reduction in viability incubated for 24 hrs by MTT assay
Format: cell-based
Details: U-937, 24 h
measuredMetric: EC50
Form entry: enter the amount, then its unit.

1. O=C(O)/C=C/c1ccc(O)c(O)c1	9.9 µM
2. CC(=O)Oc1ccc(/C=C/C(=O)OCCCCCCCCc2cn(CCCO)nn2)cc1OC(C)=O	10.2 µM
3. CC(=O)Oc1ccc(/C=C/C(=O)OCCCn2cc(CCOC(=O)/C=C/c3ccc(OC(C)=O)c(OC(C)=O)c3)nn2)cc1OC(C)=O	9.6 µM

Next, consider the following molecule.
In plain terms, CC(=O)Oc1ccc(/C=C/C(=O)NCCc2cn(CCCO)nn2)cc1OC(C)=O has a documented EC50 of 10.3 µM

###

Biological target: Polyunsaturated fatty acid 5-lipoxygenase (Homo sapiens, UniProt P09917)
Assay: Inhibition of human 5-LOX expressed in Escherichia coli Bl21 (DE3) assessed as reduction in LTB4 and 5-H(P)ETE) formation pre-incubated for 10 mins before arachidonic acid substrate addition by RP-HPLC method
Measured IC50 of individual entries

Sample answers from the record:
1) CC(=O)Oc1ccc(/C=C/C(=O)NCCc2cn(CCCO)nn2)cc1OC(C)=O	> 10 µM
2) C#CCCNC(=O)/C=C/c1ccc(OC(C)=O)c(OC(C)=O)c1	> 10 µM

Next, consider the following molecule.
In plain terms, CC(=O)Oc1ccc(/C=C/C(=O)OCCCN=[N+]=[N-])cc1OC(C)=O has a documented IC50 of > 10 µM
